All values here come from the supplement of paper PMC10567573.

B1: ZNF232 (parent)
chain: HSGEKPFICKECGKAYGWCSELIR

- Variants of: B1
- experimental details: protein stability index of a GFP-peptide fusion (GPS, HEK-293T) (PSI 1-6); higher = more stable;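 note: lentivirally expressed fusions sorted by FACS into six bins by GFP to DsRed ratio, PSI derived from sequencing read proportions per bin multiplied by bin number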
- measurement parameters: c terminus: a fixed tail appended
# binarize protein stability index: threshold 2 inclusive, high side Satisfied, low side Not satisfied

> print(dat)
                    chain.sequence   answer.label
1  HSGEKPFICKECGKAYGWHSELIR [C19H]  Not satisfied
2  HSGEKPFICKECGKAYGWCSEFIR [L22F]  Not satisfied
3   HSGKKPFICKECGKAYGWCSELIR [E4K]  Not satisfied
4  HSGEKPFICKECGKAYGWCSELCR [I23C]      Satisfied

Read the next record carefully.
Exercise: Given the entry HSGEKPFICKECGKAMGWCSELIR [Y16M] , answer whether its protein stability index meets or surpasses 2.
Key: Not satisfied
